Molecular target: cynomolgus monkey EL (cynomolgus monkey)
Experiment: cell-based or functional assay
Some binders, each annotated with its measured Neutralizing activity IC50.
Record the value in nM, omitting the unit from your answer.

- h13B3-S4 (antibody, V domains shown) VH: QVQLVQSGAEVKKPGASVKVSCKASGYTFTEYTMHWVRQAPGQGLEWMGSINPYYGGTSYNEKFKDRVTSTRDTSISTAYMELSRLRSDDTVVYYCARYGNYVGYFDYWGQGTTVTVSS VL: EIVLTQSPATLSLSPGERATLSCRASSSVHYMYWYQQKPGQAPRLLIYYTSNLAPGIPARFSGSGSGTDFTLTISSLEPEDFAVYYCQQFTSSPYTFGGGTKVEIK: 2.9

Next up:
Query block: Provide one value: measured Neutralizing activity IC50 of h23H8-S2 (antibody, V domains shown) VH: QVQLVQSGAEVKKPGASVKVSCKASGYTFTDNTIHWVRQAPGQGLEWMGHINPYYGGTNNNEKFKDRVTMTRDTSISTAYMELSRLRSDDTAVYYCARKGIYYSSPFDYWGQGTTVTVSS VL: DIQMTQSPSSLSASVGDRVTITCRASQDINNYLNWYQQKPGKAPKLLISYTSKLHSGVPSRFSGSGSGTDFTLTISSLQREDFATYYCQQGNTLPFTFGQGTKLEIK
Result block: 1.7

These measurements were taken from patent US20200071424A1.
